pIC50 data for Cruzipain (Trypanosoma cruzi, UniProt P25779) follow.
Answers are plain numbers, as −log10 of the molar value.

{"columns": ["compoundStructureString", "valueMeasured"],
 "data": [
  ["Cc1ccc(C)c(SC/C=N/NC(N)=S)c1", 5.48]
]}

Next molecule, please.
Look up pIC50: `NC(=S)N/N=C/CSc1cccc(Cl)c1`
4.72

====

- test: Selectivity index, ratio of maximum non-toxic concentration for Balb/c mouse splenocyte to IC50 for bloodstream form of Trypanosoma cruzi trypomastigotes
- Type: toxicity
- conditionSummary: mouse splenocytes, read-out: Selectivity Index
// class assignment uses selectivity ratio with these ranges: lower band (below 0.7), central band (0.7 to below 8), upper band (8 or more)

See these solved cases before continuing.
{"columns": ["compoundStructureString", "assignedLabel"],
 "data": [
  ["C(/CSc1ccccc1)=N\\Nc1nc(-c2ccccc2)cs1", "upper band"],
  ["COc1ccc(-c2csc(N/N=C/CSc3ccccc3)n2)cc1", "upper band"],
  ["O=C(Cn1ccnc1[N+](=O)[O-])NCc1ccccc1", "upper band"],
  ["Cc1cccc(SC/C=N/NC(N)=S)c1", "central band"],
  ["Brc1ccc(-c2csc(N/N=C/CSc3ccccc3)n2)cc1", "upper band"]
]}

Field: class (selectivity ratio) — entry: `Clc1ccc(-c2csc(N/N=C/CSc3ccccc3)n2)cc1Cl`
upper band

Hello team, could you let me know which band the following compound falls into: `NC(=S)N/N=C/CSc1ccc(Cl)cc1`
lower band

Given `NC(=S)N/N=C/CSc1cccc(Cl)c1` , name the class its selectivity ratio places it in.
central band

Please report the category associated with `Cc1sc(N/N=C/CSc2ccccc2)nc1-c1ccc(Br)cc1` , nothing else.
upper band

Hello team, could you let me know which band the following compound falls into: `Cc1ccc(-c2csc(N/N=C/CSc3ccccc3)n2)cc1`
upper band

Given `Cc1ccccc1SC/C=N/NC(N)=S` , name the class its selectivity ratio places it in.
central band

====

- test: Cytotoxicity against Balb/c mouse splenocyte assessed as reduction in cell viability after 24 hrs by [3H]thymidine incorporation based beta scintillation counting analysis
- conditionSummary: mouse splenocytes
quantityMeasured: MNTC at 24 h

{"columns": ["compoundStructureString", "valueMeasured"],
 "data": [
  ["C(/CSc1ccccc1)=N\\Nc1nc(-c2ccccc2)cs1", "154 µM"]
]}

Batch of 6 compounds: report MNTC at 24 h for each.
1. O=[N+]([O-])c1ccc(-c2csc(N/N=C/CSc3ccccc3)n2)cc1
2. Cc1ccccc1SC/C=N/NC(N)=S
3. NC(=S)N/N=C/CSc1ccc(Br)cc1
4. Cc1sc(N/N=C/CSc2ccccc2)nc1-c1ccc(Br)cc1
5. Brc1ccc(-c2csc(N/N=C/CSc3ccccc3)n2)cc1
6. Cc1cccc(SC/C=N/NC(N)=S)c1

1: 67.5 µM; 2: 41.8 µM; 3: < 3.3 µM; 4: > 247 µM; 5: > 239 µM; 6: < 4.2 µM

Hi, could you look up MNTC at 24 h for each item in my list?
1. Cc1ccc(C)c(SC/C=N/NC(N)=S)c1
2. NC(=S)N/N=C/CSc1ccccc1Cl

["< 3.9 µM", "< 3.8 µM"]

====

- systemUnderTest: Cruzipain (Trypanosoma cruzi) (UniProt P25779)
- Sequence (P25779 123-467 limits assumed): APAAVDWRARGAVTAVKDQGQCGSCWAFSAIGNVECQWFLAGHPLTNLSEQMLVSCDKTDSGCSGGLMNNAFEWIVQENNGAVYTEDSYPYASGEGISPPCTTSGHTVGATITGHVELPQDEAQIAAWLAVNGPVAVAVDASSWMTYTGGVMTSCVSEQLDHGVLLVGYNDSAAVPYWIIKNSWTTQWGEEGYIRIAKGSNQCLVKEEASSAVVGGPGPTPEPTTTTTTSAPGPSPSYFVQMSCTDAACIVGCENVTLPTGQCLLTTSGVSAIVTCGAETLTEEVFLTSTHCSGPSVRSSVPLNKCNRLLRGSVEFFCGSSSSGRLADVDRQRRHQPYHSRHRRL
- test: Inhibition of Trypanosoma cruzi cruzain at 100 uM using Z-FR-AMC as substrate preincubated for 10 mins followed by substrate addition and measured for 5 mins by fluorimetric analysis relative to control
quantityMeasured: inhibition (%)
Answers are plain numbers, in %.

Known inhibition results, listed for orientation:
{"columns": ["compoundStructureString", "resultUnit", "inhibition"],
 "data": [
  ["NC(=S)N/N=C/CSc1ccc(Cl)cc1", "%", 25.2],
  ["Fc1ccc(-c2csc(N/N=C/CSc3ccccc3)n2)cc1", "%", 22.9],
  ["NC(=S)N/N=C/CSc1ccc(Br)cc1", "%", 16.6],
  ["Cc1ccc(C)c(SC/C=N/NC(N)=S)c1", "%", 87.6],
  ["O=[N+]([O-])c1cccc(-c2csc(N/N=C/CSc3ccccc3)n2)c1", "%", 16.2],
  ["Cc1ccc(SC/C=N/NC(N)=S)cc1", "%", 31.4],
  ["NC(=S)N/N=C/CSc1ccc(F)cc1", "%", 27.5],
  ["Clc1ccc(-c2csc(N/N=C/CSc3ccccc3)n2)c(Cl)c1", "%", 67.2],
  ["Cc1ccc(-c2csc(N/N=C/CSc3ccccc3)n2)cc1", "%", 11.9],
  ["Cc1sc(N/N=C/CSc2ccccc2)nc1-c1ccc(Br)cc1", "%", 27]
]}

Return reported inhibition values for all items listed beneath this line.
1. Cc1cccc(SC/C=N/NC(N)=S)c1
2. NC(=S)N/N=C/CSc1cccc(Cl)c1

1. 43.4
2. 75.9

I have 3 compounds here; please give me inhibition for each one.
1. Clc1ccc(-c2csc(N/N=C/CSc3ccccc3)n2)cc1Cl
2. NC(=S)N/N=C/CSc1cc(Cl)ccc1Cl
3. NC(=S)N/N=C/CSc1ccccc1

1: 62.9; 2: 37.4; 3: 42.1

Each of the following entries comes with a recorded value; kindly state inhibition for each.
1. O=[N+]([O-])c1ccc(-c2csc(N/N=C/CSc3ccccc3)n2)cc1
2. Cc1ccccc1SC/C=N/NC(N)=S
3. Clc1ccc(-c2csc(N/N=C/CSc3ccccc3)n2)cc1
4. Brc1ccc(-c2csc(N/N=C/CSc3ccccc3)n2)cc1
5. COc1ccc(SC/C=N/NC(N)=S)cc1
6. NC(=S)N/N=C/CSc1ccccc1Cl

[18.9, 13.9, 17.6, 7, 34.6, 46]

====

Exercise: for every item that follows, state its recorded MNTC at 24 h.
- test: Cytotoxicity against Balb/c mouse splenocyte assessed as reduction in cell viability after 24 hrs by [3H]thymidine incorporation based beta scintillation counting analysis
- conditionSummary: mouse splenocytes
One number for each entry, in µM.

Solved entries (count: 2):
{"columns": ["compoundStructureString", "MNTC at 24 h (µM)"],
 "data": [
  ["Clc1ccc(-c2csc(N/N=C/CSc3ccccc3)n2)c(Cl)c1", 127],
  ["O=[N+]([O-])c1cccc(-c2csc(N/N=C/CSc3ccccc3)n2)c1", 135]
]}

Record MNTC at 24 h for all entries; do not skip any.
1. NC(=S)N/N=C/CSc1cccc(Cl)c1
2. Cc1ccc(-c2csc(N/N=C/CSc3ccccc3)n2)cc1
3. Clc1ccc(-c2csc(N/N=C/CSc3ccccc3)n2)cc1Cl
4. NC(=S)N/N=C/CSc1ccc(F)cc1

1: 96.2; 2: 147; 3: 127; 4: 20.5

Look up MNTC at 24 h for the entries below, preserving their order.
1. Cc1ccc(SC/C=N/NC(N)=S)cc1
2. NC(=S)N/N=C/CSc1cc(Cl)ccc1Cl

[4.2, 85]

====

- test: Selectivity index, ratio of maximum non-toxic concentration for Balb/c mouse splenocyte to IC50 for bloodstream form of Trypanosoma cruzi trypomastigotes
- Type: toxicity
- conditionSummary: mouse splenocytes, read-out: Selectivity Index
quantityMeasured: selectivity ratio

{"columns": ["compoundStructureString", "valueMeasured"],
 "data": [
  ["Fc1ccc(-c2csc(N/N=C/CSc3ccccc3)n2)cc1", "> 7"]
]}

Please go through the list and note selectivity ratio for each compound.
1. O=[N+]([O-])c1ccc(-c2csc(N/N=C/CSc3ccccc3)n2)cc1
2. NC(=S)N/N=C/CSc1ccccc1
3. NC(=S)N/N=C/CSc1ccccc1Cl
4. NC(=S)N/N=C/CSc1ccc(Br)cc1
5. Clc1ccc(-c2csc(N/N=C/CSc3ccccc3)n2)c(Cl)c1

1. 8
2. 0.25
3. 0.6
4. 0.5
5. 30.9

State the recorded selectivity ratio for every item in the following list.
1. NC(=S)N/N=C/CSc1ccc(F)cc1
2. Cc1ccc(C)c(SC/C=N/NC(N)=S)c1
3. Clc1ccc(-c2csc(N/N=C/CSc3ccccc3)n2)cc1
4. COc1ccc(SC/C=N/NC(N)=S)cc1
5. O=[N+]([O-])c1cccc(-c2csc(N/N=C/CSc3ccccc3)n2)c1
6. NC(=S)N/N=C/CSc1cc(Cl)ccc1Cl

3.6
0.7
> 67.8
0.1
7
10.4

====

- test: Cytotoxicity against Balb/c mouse splenocyte assessed as reduction in cell viability after 24 hrs by [3H]thymidine incorporation based beta scintillation counting analysis
- conditionSummary: mouse splenocytes
quantityMeasured: MNTC at 24 h

Take a look at these entries with their results.
{"columns": ["compoundStructureString", "MNTC at 24 h"],
 "data": [
  ["Fc1ccc(-c2csc(N/N=C/CSc3ccccc3)n2)cc1", "> 291 µM"],
  ["COc1ccc(SC/C=N/NC(N)=S)cc1", "< 3.9 µM"],
  ["COc1ccc(-c2csc(N/N=C/CSc3ccccc3)n2)cc1", "> 281 µM"],
  ["Clc1ccc(-c2csc(N/N=C/CSc3ccccc3)n2)cc1", "> 278 µM"]
]}

Then this compound:
Field request: MNTC at 24 h | item: `NC(=S)N/N=C/CSc1ccc(Cl)cc1`
< 3.8 µM
